The reported numbers originate from patent US20220112288A1.

Target: T1, Recombinant human CD4 (R&D Systems, Cat. 10327-CD) (human, UniProt P01730 26-390, limits assumed)
T1 construct: Soluble analyte in the Octet assay
Test: BLI Octet, mAb on anti-mouse Fc sensor, CD4 100/50/25 nM, 1:1 global fit;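 further: antibodies loaded at 10 µg/mL, an unrelated mouse-derived antibody served as internal reference control, association and dissociation phases fitted after Savitzky-Golay smoothing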
recorded_metric: Response
Number only, no unit.

75110_04K10A (antibody, V domains shown, Tested as antibody purified from AlivaMab Mouse hybridoma supernatant (captured by anti-mouse IgG Fc)) VH: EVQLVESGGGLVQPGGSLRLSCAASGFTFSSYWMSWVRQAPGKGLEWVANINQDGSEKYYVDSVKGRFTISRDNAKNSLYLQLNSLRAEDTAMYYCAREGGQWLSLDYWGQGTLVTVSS VL: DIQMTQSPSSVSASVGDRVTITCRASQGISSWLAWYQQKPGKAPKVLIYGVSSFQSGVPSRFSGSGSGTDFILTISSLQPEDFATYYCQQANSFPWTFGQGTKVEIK    0.1
75110_05E13A (antibody, V domains shown, Tested as antibody purified from AlivaMab Mouse hybridoma supernatant (captured by anti-mouse IgG Fc)) VH: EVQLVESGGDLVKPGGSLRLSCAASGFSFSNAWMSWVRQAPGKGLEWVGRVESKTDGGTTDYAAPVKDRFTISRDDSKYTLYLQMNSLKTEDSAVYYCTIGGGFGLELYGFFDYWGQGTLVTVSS VL: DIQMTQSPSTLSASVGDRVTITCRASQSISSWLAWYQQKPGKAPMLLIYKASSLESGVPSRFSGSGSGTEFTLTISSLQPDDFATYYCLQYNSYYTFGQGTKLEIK    0.37

Pending binder:
Dear colleague, I am looking for the recorded Response of the following binder: 75110_02N15A (antibody, V domains shown, Tested as antibody purified from AlivaMab Mouse hybridoma supernatant (captured by anti-mouse IgG Fc)) VH: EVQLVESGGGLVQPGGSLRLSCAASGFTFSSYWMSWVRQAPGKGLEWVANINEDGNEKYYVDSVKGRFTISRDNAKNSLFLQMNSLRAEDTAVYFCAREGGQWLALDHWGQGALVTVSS VL: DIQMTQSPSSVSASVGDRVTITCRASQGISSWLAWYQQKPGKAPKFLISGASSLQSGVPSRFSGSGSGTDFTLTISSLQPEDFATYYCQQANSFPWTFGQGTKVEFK
0.25
